- system.tested: Cannabinoid receptor 2 (Homo sapiens, UniProt P34972)
- Sequence (P34972 whole entry): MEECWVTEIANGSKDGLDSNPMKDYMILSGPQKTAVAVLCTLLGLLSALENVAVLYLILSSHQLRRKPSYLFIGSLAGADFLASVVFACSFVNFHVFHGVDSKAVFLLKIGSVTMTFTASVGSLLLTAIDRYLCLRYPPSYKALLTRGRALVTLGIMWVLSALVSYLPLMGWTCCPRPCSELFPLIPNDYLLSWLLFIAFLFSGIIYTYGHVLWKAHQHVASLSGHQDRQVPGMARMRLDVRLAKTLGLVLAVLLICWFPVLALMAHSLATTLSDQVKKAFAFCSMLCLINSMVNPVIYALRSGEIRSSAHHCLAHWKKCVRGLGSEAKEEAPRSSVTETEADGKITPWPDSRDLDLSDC
- procedure.summary: Displacement of [3H]-CP55940 from human recombinant cannabinoid CB2 receptor expressed in HEK cell membranes incubated for 1.5 hrs by liquid scintillation counting method
attribute.measured: Ki

> print(dat)
                                   compound  attribute.measured    result
1    Cc1cccc(-c2c(O)cc(C(=O)c3cccs3)cc2O)c1                  Ki  0.975 µM
2   Cc1cccc(-c2c(O)cc(C(=O)c3ccccc3)cc2O)c1                  Ki   0.32 µM
3  O=C(c1ccccc1)c1cc(O)c(-c2ccnc(F)c2)c(O)c1                  Ki   > 10 µM
4  O=C(c1cc(O)c(-c2cc(Cl)ccc2Cl)c(O)c1)c1cccs1                  Ki  0.447 µM
5  O=C(c1cc(O)c(-c2cccc(C(F)(F)F)c2)c(O)c1)c1cccs1                  Ki  0.154 µM
6  O=C(c1ccccc1)c1cc(O)c(-c2ccc3c(c2)OCO3)c(O)c1                  Ki   > 10 µM
7  O=C(c1ccccc1)c1cc(O)c(-c2cccc(C(F)(F)F)c2)c(O)c1                  Ki  0.204 µM
8  O=C(c1ccccc1)c1cc(O)c(-c2ccc3c(c2)OCCO3)c(O)c1                  Ki   4.74 µM

====

Property: Ki; scope: individual molecules
- system.tested: Cannabinoid receptor 1 (Homo sapiens)
- Sequence (P21554 whole entry): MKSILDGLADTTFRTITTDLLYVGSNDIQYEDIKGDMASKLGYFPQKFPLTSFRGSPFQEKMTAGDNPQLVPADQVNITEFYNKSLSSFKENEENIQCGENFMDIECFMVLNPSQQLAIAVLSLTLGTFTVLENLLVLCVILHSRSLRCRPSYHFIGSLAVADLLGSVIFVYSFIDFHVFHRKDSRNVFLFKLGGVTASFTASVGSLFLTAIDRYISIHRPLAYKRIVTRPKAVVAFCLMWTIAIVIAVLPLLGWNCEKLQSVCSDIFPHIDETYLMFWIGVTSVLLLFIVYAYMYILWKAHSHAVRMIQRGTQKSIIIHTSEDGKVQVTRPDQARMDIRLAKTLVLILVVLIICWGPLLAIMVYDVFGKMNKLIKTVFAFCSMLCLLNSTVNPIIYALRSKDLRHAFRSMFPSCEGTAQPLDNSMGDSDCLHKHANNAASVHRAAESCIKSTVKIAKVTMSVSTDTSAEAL
- procedure.summary: Displacement of [3H]-CP55940 from human recombinant cannabinoid CB1 receptor expressed in HEK cell membranes incubated for 1.5 hrs by liquid scintillation counting method
attribute.measured: Ki

> print(dat)
                                   compound   result
1     O=C(c1cc(O)c(-c2ccncc2)c(O)c1)c1cccs1  > 10 µM
2  O=C(c1cc(O)c(-c2cccc(CO)c2)c(O)c1)c1cccs1  > 10 µM
3  O=C(c1ccccc1)c1cc(O)c(-c2ccnc(Cl)c2)c(O)c1  > 10 µM

====

- system.tested: Cannabinoid receptor 2 (Homo sapiens)
- procedure.summary: Inverse agonist activity at human recombinant cannabinoid CB2 receptor expressed in HEK cells transfected with CNG assessed as increase in cAMP level measured up to 1 hr by ACTOne membrane potential dye based assay
- Format: functional, cell-based
Property: EC50; scope: individual molecules
attribute.measured: EC50 (µM)

> print(dat)
                                   compound  units.text  numeric.value
1     O=C(c1ccccc1)c1cc(O)c(-c2ccoc2)c(O)c1          µM           2.75
2  O=C(c1ccccc1)c1cc(O)c(-c2ccc3c(c2)OCCO3)c(O)c1          µM            4.9
3    Cc1cccc(-c2c(O)cc(C(=O)c3cccs3)cc2O)c1          µM            0.2
4  O=C(c1ccccc1)c1cc(O)c(-c2cc(C(F)(F)F)cc(C(F)(F)F)c2)c(O)c1          µM          0.372

====

- system.tested: UniProt P21554
- procedure.summary: Displacement of [3H]-CP55940 from human recombinant cannabinoid CB1 receptor expressed in HEK cell membranes incubated for 1.5 hrs by liquid scintillation counting method
pKi: −log10 of the molar value.
Property: pKi; scope: individual compounds
attribute.measured: pKi

> print(dat)
                                   compound  result
1  O=C(c1ccccc1)c1cc(O)c(-c2cc(F)cc(F)c2)c(O)c1    5.97
2  O=C(c1ccccc1)c1cc(O)c(-c2cc(Cl)ccc2Cl)c(O)c1  < 5.00
3  O=C(c1cc(O)c(-c2cccc(C(F)(F)F)c2)c(O)c1)c1cccs1  < 5.00
4  O=C(c1ccccc1)c1cc(O)c(-c2cccc(C(F)(F)F)c2)c(O)c1  < 5.00
